- test system: ERα in MCF7 cells (Homo sapiens (Human), UniProt P03372)
- Sequence (P03372 whole entry): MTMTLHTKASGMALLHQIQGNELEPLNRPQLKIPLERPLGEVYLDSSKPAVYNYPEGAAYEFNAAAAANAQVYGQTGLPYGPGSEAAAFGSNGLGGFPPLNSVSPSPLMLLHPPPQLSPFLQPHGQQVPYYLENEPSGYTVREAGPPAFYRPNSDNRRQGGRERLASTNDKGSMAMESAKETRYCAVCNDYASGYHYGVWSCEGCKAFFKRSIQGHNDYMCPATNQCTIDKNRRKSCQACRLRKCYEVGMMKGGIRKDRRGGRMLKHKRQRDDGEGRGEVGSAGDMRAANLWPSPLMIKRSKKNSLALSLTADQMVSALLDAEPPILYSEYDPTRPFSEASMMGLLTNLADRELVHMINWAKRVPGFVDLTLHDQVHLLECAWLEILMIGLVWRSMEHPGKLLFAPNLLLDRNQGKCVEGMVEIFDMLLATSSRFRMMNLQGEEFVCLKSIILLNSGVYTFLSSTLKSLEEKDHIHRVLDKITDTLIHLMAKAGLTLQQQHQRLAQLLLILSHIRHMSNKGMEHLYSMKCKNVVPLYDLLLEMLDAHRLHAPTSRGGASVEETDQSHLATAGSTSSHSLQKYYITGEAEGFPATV
- procedure details: Test C: estrogen receptor degradation activity, ERα in cell western assay in MCF7 cells
- Assay type: cell-based
- condition context: at 3 μM, 4 hours, relative to fulvestrant
What % Degradation at 3 μM was measured for each of the following?
Answer by giving the amount and then stating its unit.

Entry C[C@H]1Cc2cc(C3=C(c4ccc(O[C@H]5CCN(CCCF)C5)cc4)c4ccc(O)cc4SCC3)ccc2O1 [Example 204] , % Degradation at 3 μM reported as 88%

% Degradation at 3 μM in this record for Oc1ccc2c(c1)SCC(c1ccc(OC3COC3)cc1)=C2c1ccc(O[C@H]2CCN(CCCF)C2)cc1 [Example 44] : 89%

Recorded result, Cc1cc(F)ccc1C1=C(c2ccc(O[C@H]3CCN(CCCF)C3)cc2)c2ccc(O)cc2OCC1 [Example 100] , % Degradation at 3 μM: 88%

Oc1ccc2c(c1)SCC(c1ccc3ncccc3c1)=C2c1ccc(O[C@H]2CCN(CCCF)C2)cc1 [Example 67] yielded % Degradation at 3 μM of 90%

====

- test system: His6-ERα298-554 WT (ERα ligand-binding domain) (Homo sapiens (Human))
- procedure details: Test A: biochemical antagonist activity, LanthaScreen TR-FRET ERα coactivator assay, WT
- condition context: protocol with 3 nM estradiol; read-out: Antagonism WT IC50
IC50 strictly under 0.01 µM means true; at 0.01 µM or over means false.

Inquiry: I'd appreciate it if you could check whether "Cc1cc(F)ccc1C1=C(c2ccc(O[C@H]3CCN(CCCF)C3)cc2)c2ccc(O)cc2OCC1" has IC50 smaller than 0.01 µM.
Reply text: true

Inquiry: State whether 0.01 µM exceeds IC50 recorded for "Oc1ccc2c(c1)OCCC(c1ccc(F)cc1Cl)=C2c1ccc(O[C@H]2CCN(CCCF)C2)cc1" .
Reply text: true

Inquiry: State whether 0.01 µM exceeds IC50 recorded for "Cc1cc(C2=C(c3ccc(O[C@H]4CCN(CCCF)C4)cc3)c3ccc(O)cc3OCC2)ccc1Cl" .
Reply text: true

Inquiry: IC50 under 0.01 µM? Item: "O=S1(=O)CCC(c2ccc(F)cc2Cl)=C(c2ccc(O[C@H]3CCN(CCCF)C3)cc2)c2ccc(O)cc21"
Reply text: false

Inquiry: Dear colleague, could you confirm whether IC50 of "Oc1ccc2c(c1)C(c1ccc(O[C@H]3CCN(CCCF)C3)cc1)=C(c1ccncc1F)CC2" falls below 0.01 µM? Thanks.
Reply text: false

Inquiry: Lab note: confirm whether the reported IC50 for this compound is below 0.01 µM, equality not counting. compound: "Oc1ccc2c(c1)OCCC(c1cccc3c1CCN3)=C2c1ccc(O[C@H]2CCN(CCCF)C2)cc1"
Reply text: false

Inquiry: Determine if "Oc1ccc2c(c1Cl)OCCC(c1cccc3[nH]ccc13)=C2c1ccc(O[C@H]2CCN(CCCF)C2)cc1" shows IC50 strictly lower than 0.01 µM.
Reply text: false

Inquiry: Determine whether this compound shows IC50 lower than 0.01 µM (ties excluded): "Oc1ccc2c(c1)OCCC(c1ccc3c(c1)CCN3)=C2c1ccc(O[C@H]2CCN(CCCF)C2)cc1"
Reply text: false

Inquiry: Is it true that IC50 reported for "Oc1ccc2c(c1)OCCC(c1ccc(Cl)cc1F)=C2c1ccc(O[C@H]2CCN(CCCF)C2)cc1" is less than 0.01 µM?
Reply text: false

Inquiry: Determine whether this compound shows IC50 lower than 0.01 µM (ties excluded): "Cc1ccc(C2=C(c3ccc(O[C@H]4CCN(CCCF)C4)cc3)c3cc(Cl)c(O)cc3OCC2)c(F)c1"
Reply text: false

Inquiry: Just wondering, is IC50 of "Cc1c(Cl)cccc1C1=C(c2ccc(O[C@H]3CCN(CCCF)C3)cc2)c2cc(O)ccc2SCC1" below 0.01 µM?
Reply text: false

Inquiry: Given the entry "O=S1(=O)CCC(c2ccc(Cl)cc2F)=C(c2ccc(O[C@H]3CCN(CCCF)C3)cc2)c2ccc(O)cc21" , would its reported IC50 be below 0.01 µM?
Reply text: false

Inquiry: I'd appreciate it if you could check whether "Cc1cc(F)ccc1C1=C(c2ccc(O[C@H]3CCN(CCCF)C3)cc2)c2cc(O)ccc2SCC1" has IC50 smaller than 0.01 µM.
Reply text: true

Inquiry: # strict comparison: is reported IC50 < 0.01 µM? input = "Oc1cc2c(cc1Cl)C(c1ccc(O[C@H]3CCN(CCCF)C3)cc1)=C(c1ccc3c(c1)CCN3)CCO2"
Reply text: false

Inquiry: Record "Oc1cccc(C2=C(c3ccc(O[C@H]4CCN(CCCF)C4)cc3)c3ccc(O)cc3SCC2)c1" : is its IC50 strictly below 0.01 µM?
Reply text: true

Inquiry: Dear colleague, could you confirm whether IC50 of "Cc1cc2c(cc1O)OCCC(c1ccc3[nH]ccc3c1)=C2c1ccc(O[C@H]2CCN(CCCF)C2)cc1" falls below 0.01 µM? Thanks.
Reply text: false

Inquiry: For this compound, is IC50 lower than 0.01 µM? "CCOc1ccc(C2=C(c3ccc(O[C@H]4CCN(CCCF)C4)cc3)c3ccc(O)cc3SC2)c(F)c1"
Reply text: true

Inquiry: State whether 0.01 µM exceeds IC50 recorded for "Cc1cc(C2=C(c3ccc(O[C@H]4CCN(CCCF)C4)cc3)c3cc(O)ccc3SCC2)ccc1Cl" .
Reply text: false

Inquiry: Please check: IC50 for "Oc1ccc2c(c1)OCCC(c1ccc3[nH]ccc3c1)=C2c1ccc(O[C@H]2CCN(CCCF)C2)cc1" , strictly under 0.01 µM or not?
Reply text: true

Inquiry: Strictly below 0.01 µM in IC50? "Oc1ccc2c(c1Cl)OCCC(c1ccc3c(c1)NCC3)=C2c1ccc(O[C@H]2CCN(CCCF)C2)cc1"
Reply text: false

Inquiry: Bench note: check whether "Cc1cc2c(cc1O)OCCC(c1ccc3c(c1)CCN3)=C2c1ccc(O[C@H]2CCN(CCCF)C2)cc1" shows IC50 below 0.01 µM
Reply text: false

====

- test system: His6-ERα298-554 Y537S mutant (ERα ligand-binding domain) (Homo sapiens (Human), UniProt P03372, Y537S)
- Sequence (P03372 298-554 Y537S): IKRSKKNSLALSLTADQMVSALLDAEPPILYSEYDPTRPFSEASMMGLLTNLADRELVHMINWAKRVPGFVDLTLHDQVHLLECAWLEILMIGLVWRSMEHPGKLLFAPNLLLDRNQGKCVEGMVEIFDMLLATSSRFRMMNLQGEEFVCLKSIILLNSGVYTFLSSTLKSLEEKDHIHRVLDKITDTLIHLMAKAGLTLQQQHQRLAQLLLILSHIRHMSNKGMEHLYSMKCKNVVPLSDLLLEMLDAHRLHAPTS
- procedure details: Test A: biochemical antagonist activity, LanthaScreen TR-FRET ERα coactivator assay, Y537S mutant
- condition context: asterisk (*): protocol using 10 nM estradiol; read-out: Antagonism Y537S IC50
pIC50: −log10 of the molar value.
recorded endpoint: pIC50

// recorded pIC50 for "Oc1ccc2c(c1)OCC(c1ccc(Cl)cc1Cl)=C2c1ccc(O[C@H]2CCN(CCCF)C2)cc1" : < 5.40

In plain terms, "Oc1ccc2c(c1)C(c1ccc(O[C@H]3CCN(CCCF)C3)cc1)=C(c1ccc(SC(F)(F)F)cc1)CC2" has a documented pIC50 of < 5.40

Memo: "CCOc1nccc(C2=C(c3ccc(O[C@H]4CCN(CCCF)C4)cc3)c3ccc(O)cc3SC2)c1F" , reported pIC50: < 5.40

====

- test system: His6-ERα298-554 WT (ERα ligand-binding domain) (Homo sapiens (Human), UniProt P03372)
- Sequence (P03372 298-554): as the sequence (P03372 298-554 Y537S) above, with S240Y counted along it
- procedure details: Test A: biochemical antagonist activity, LanthaScreen TR-FRET ERα coactivator assay, WT
- condition context: protocol with 3 nM estradiol; read-out: Antagonism WT IC50
recorded endpoint: IC50 (nM)
Lab book: enter the figure in nM, no units written.

Lab note: measured IC50 of "Cc1ccc(C2=C(c3ccc(O[C@H]4CCN(CCCF)C4)cc3)c3ccc(O)cc3SCC2)c(F)c1" was 3

For record "COc1ccc(C2=C(c3ccc(O[C@H]4CCN(CCCF)C4)cc3)c3ccc(O)cc3OCC2)c(F)c1" the listed IC50 is 2

Reported IC50 ( "Oc1ccc(C2=C(c3ccc(O[C@H]4CCN(CCCF)C4)cc3)c3cc(O)ccc3SCC2)cc1" ) = 4

Sure, the documented IC50 for "Cc1ccc(C2=C(c3ccc(O[C@H]4CCN(CCCF)C4)cc3)c3ccc(O)c(C)c3OCC2)c(F)c1" is 91

====

Task for the reader: assign each of the following compounds its reported pIC50.
- Tested on: MCF7 cells (breast tumor cells) WT
- procedure details: Test B: cell proliferation/viability assay (CellTiter-Glo) on MCF7 WT
- Assay type: cell-based
- condition context: Homo sapiens, MCF7, 168 h, 7 days of compound exposure
Units for pIC50: none; it is -log10 of a concentration expressed in mol/L.

Entry Cc1noc(C)c1C1=C(c2ccc(O[C@H]3CCN(CCCF)C3)cc2)c2ccc(O)cc2SCC1 [Example 219] — recorded pIC50 = 10.00

// field: pIC50; key: Oc1ccc2c(c1)SCCC(c1ccc(OC(F)F)c(F)c1)=C2c1ccc(O[C@H]2CCN(CCCF)C2)nc1 [Example 207] ; value = 10.00

Field pIC50 (entry Cc1ccc(C2=C(c3ccc(O[C@H]4CCN(CCCF)C4)cc3)c3ccc(O)c(F)c3OCC2)c(F)c1 [Example 106] ) reads 9.15

Short answer for Oc1ccc2c(c1)SCC(c1ccc(F)nc1F)=C2c1ccc(O[C@H]2CCN(CCCF)C2)cc1 [Example 49] : pIC50 was 9.52

// sample Oc1ccc2c(c1)C(c1ccc(O[C@H]3CCN(CCCF)C3)cc1)=C(c1ccc(OC(F)(F)F)cc1Cl)CC2 [Example 7] , its pIC50 was 7.89

// field: pIC50; key: Oc1ccc(C2Sc3cc(O)ccc3OC2c2ccc(O[C@H]3CCN(CCCF)C3)cc2)cc1 (stereo partly shown) [Example 258] ; value = 8.22

// field: pIC50; key: CC(C)(C)c1ccc(C2=C(c3ccc(N[C@H]4CCN(CCCF)C4)cc3)c3ccc(O)cc3CCC2)cc1 [Example 89] ; value = 9.40

The values you see were collected from patent US11149031B2.
